- measurement_description: Plasma pharmacokinetics
- Type: in vivo, male BALB/c mice
- conditions_used: male, BALB/c, mouse, in vivo, iv
Numbered stars: 1 amine (or outer) side, 2 acyl side, 3 side chain; on linkers, the order of the positions; unused ones are H or OH. Bridge positions count the residues as written; N and C are the ends. Square brackets hold non-standard residues; d marks the D form. Peptide text beside a SMILES is read from it. * marks the point of attachment. Piperazine(2S-CO,4-Me) = CN1CCN[C@H](C(=O)O)C1; Phe(3-Me) = Cc1cccc(C[C@H](N)C(=O)O)c1; NH(4-Cl-2-F-phenyl) = Fc1cc(Cl)ccc1N*; Pro(4R-Me) = C[C@H]1CN[C@H](C(=O)O)C1; Hyp = O=C(O)[C@@H]1C[C@@H](O)CN1; aThr = C[C@H](O)[C@H](N)C(=O)O; Pip = O=C(O)[C@@H]1CCCCN1; CO = O=C([*:1])[*:2]
property_label: clearance
Provide a numeric answer, followed by its unit.

### Prompt Any idea what clearance was measured for Cc1cccc(C[C@H](NC(=O)Nc2ccc(Cl)cc2F)C(=O)N[C@@H]2C(=O)N3C[C@H](O)C[C@H]3C(=O)N3CCN(C)C[C@H]3C(=O)N[C@@H](C)C(=O)N3C[C@H](C)C[C@H]3C(=O)O[C@H]2C)c1 [Compound 31] ({NH(4-Cl-2-F-phenyl)-CO}-[Phe(3-Me)][aThr][Hyp][Piperazine(2S-CO,4-Me)]A[Pro(4R-Me)]; ester 2-C) ?
### Response 31.7 mL/min/kg

### Prompt Consider next the compound Cc1cccc(C[C@H](NC(=O)Nc2ccc3c(c2)OCO3)C(=O)N[C@H]2COC(=O)[C@@H]3C[C@@H](C)CN3C(=O)[C@H](C)NC(=O)[C@@H]3CCCCN3C(=O)[C@@H]3CCCN3C2=O)c1 in the same way.
### Response 13.8 mL/min/kg

### Prompt Next record, please: Cc1cccc(C[C@H](NC(=O)Nc2ccc(Cl)cc2F)C(=O)N[C@@H]2C(=O)N3C[C@H](O)C[C@H]3C(=O)N3CCCC[C@H]3C(=O)N[C@@H](C)C(=O)N3C[C@H](C)C[C@H]3C(=O)O[C@H]2C)c1 [Compound 6] ({NH(4-Cl-2-F-phenyl)-CO}-[Phe(3-Me)][aThr][Hyp][Pip]A[Pro(4R-Me)]; ester 2-C)
### Response 14 mL/min/kg

###

- measurement_description: Plasma pharmacokinetics
- Type: in vivo, male BALB/c mice
- conditions_used: male, BALB/c, mouse, in vivo, iv, 10 mg/kg; Route i.v.; read-out: Vss
Numbered stars: 1 amine (or outer) side, 2 acyl side, 3 side chain; on linkers, the order of the positions; unused ones are H or OH. Bridge positions count the residues as written; N and C are the ends. Square brackets hold non-standard residues; d marks the D form. Peptide text beside a SMILES is read from it. * marks the point of attachment. Piperazine(2S-CO,4-Me) = CN1CCN[C@H](C(=O)O)C1; Phe(3-Me) = Cc1cccc(C[C@H](N)C(=O)O)c1; NH(4-Cl-2-F-phenyl) = Fc1cc(Cl)ccc1N*; Pro(4R-Me) = C[C@H]1CN[C@H](C(=O)O)C1; X1 = O=C([C@@H]1CSCCN1[*:1])[*:2]; Hyp = O=C(O)[C@@H]1C[C@@H](O)CN1; NH(4-Et-phenyl) = CCc1ccc(N*)cc1; NH(4-Me-phenyl) = Cc1ccc(N*)cc1; aThr = C[C@H](O)[C@H](N)C(=O)O; Pip = O=C(O)[C@@H]1CCCCN1; CO = O=C([*:1])[*:2]
property_label: Vd (L/kg)
Please reply with the bare figure in L/kg and do not write the unit itself.

Check out these entries, answers already filled in.
[
  {
    "compound": "CCc1ccc(NC(=O)N[C@@H](Cc2cccc(C)c2)C(=O)N[C@H]2COC(=O)[C@@H]3C[C@@H](C)CN3C(=O)[C@H](C)NC(=O)[C@@H]3CN(C)CCN3C(=O)[C@@H]3CCCN3C2=O)cc1 [Compound 16] ({NH(4-Et-phenyl)-CO}-[Phe(3-Me)]SP[Piperazine(2S-CO,4-Me)]A[Pro(4R-Me)]; ester 2-C)",
    "Vd (L/kg)": 0.57
  },
  {
    "compound": "Cc1cccc(C[C@H](NC(=O)Nc2ccc(Cl)cc2F)C(=O)N[C@@H]2C(=O)N3CCC[C@H]3C(=O)N3CCCC[C@H]3C(=O)N[C@@H](C)C(=O)N3C[C@H](C)C[C@H]3C(=O)O[C@H]2C)c1 [Compound 3] ({NH(4-Cl-2-F-phenyl)-CO}-[Phe(3-Me)][aThr]P[Pip]A[Pro(4R-Me)]; ester 2-C)",
    "Vd (L/kg)": 2.08
  },
  {
    "compound": "Cc1cccc(C[C@H](NC(=O)Nc2ccc(Cl)cc2F)C(=O)N[C@@H]2C(=O)N3CCC[C@H]3C(=O)N3CCN(C)C[C@H]3C(=O)N[C@@H](C)C(=O)N3C[C@H](C)C[C@H]3C(=O)O[C@H]2C)c1 [Compound 11] ({NH(4-Cl-2-F-phenyl)-CO}-[Phe(3-Me)][aThr]P[Piperazine(2S-CO,4-Me)]A[Pro(4R-Me)]; ester 2-C)",
    "Vd (L/kg)": 2.28
  },
  {
    "compound": "Cc1cccc(C[C@H](NC(=O)Nc2ccc3c(c2)OCO3)C(=O)N[C@H]2COC(=O)[C@@H]3C[C@@H](C)CN3C(=O)[C@H](C)NC(=O)[C@@H]3CCCCN3C(=O)[C@@H]3CCCN3C2=O)c1",
    "Vd (L/kg)": 2.83
  },
  {
    "compound": "Cc1ccc(NC(=O)N[C@@H](Cc2cccc(C)c2)C(=O)N[C@@H]2C(=O)N3C[C@H](O)C[C@H]3C(=O)N3CCN(C)C[C@H]3C(=O)N[C@@H](C)C(=O)N3C[C@H](C)C[C@H]3C(=O)O[C@H]2C)cc1 [Compound 30] ({NH(4-Me-phenyl)-CO}-[Phe(3-Me)][aThr][Hyp][Piperazine(2S-CO,4-Me)]A[Pro(4R-Me)]; ester 2-C)",
    "Vd (L/kg)": 1.74
  }
]

### Prompt Field request: Vd | item: Cc1cccc(C[C@H](NC(=O)Nc2ccc(Cl)cc2F)C(=O)N[C@@H]2C(=O)N3CCC[C@H]3C(=O)N3CCSC[C@H]3C(=O)N[C@@H](C)C(=O)N3C[C@H](C)C[C@H]3C(=O)O[C@H]2C)c1 [Compound 38] ({NH(4-Cl-2-F-phenyl)-CO}-[Phe(3-Me)][aThr]P[X1]A[Pro(4R-Me)]; ester 2-C)
### Response 1.77

### Prompt Now try Cc1ccc(NC(=O)N[C@@H](Cc2cccc(C)c2)C(=O)N[C@@H]2C(=O)N3CCC[C@H]3C(=O)N3CCCC[C@H]3C(=O)N[C@@H](C)C(=O)N3C[C@H](C)C[C@H]3C(=O)O[C@H]2C)cc1 [Compound 1] ({NH(4-Me-phenyl)-CO}-[Phe(3-Me)][aThr]P[Pip]A[Pro(4R-Me)]; ester 2-C) .
### Response 0.74
